target: T1, huZIP12-ECD-GST (human, UniProt Q504Y0 24-202); test: SPR single cycle kinetics (Biacore): mAb captured on protein A, huZIP12-ECD-GST injected at 3.12-800 nM
T1 construct: also called hZIP12-ECD-GST; human ZIP12-ECD-GST; not shown: glutathione S-transferase (GST) tag
T1 sequence (Q504Y0 24-202): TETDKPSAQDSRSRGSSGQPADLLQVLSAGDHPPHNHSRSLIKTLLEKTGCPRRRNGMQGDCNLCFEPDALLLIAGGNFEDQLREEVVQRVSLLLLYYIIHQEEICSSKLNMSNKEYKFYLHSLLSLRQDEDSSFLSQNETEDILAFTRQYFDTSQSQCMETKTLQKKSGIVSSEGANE
Entries and their kon values follow.
# output: bare number, implied unit M⁻¹ s⁻¹

# annotated cases, reported kon shown
{"binder": "H2_Y60K_L1 (antibody, V domains shown, Fc null human IgG1 / human kappa) VH: QVQLVESGGGVVQPGRSLRLSCAASGFTFSDYGMHWVRQAPGKGLEWVAYISSGGTTIYKADTVKGRFTISRDNSKNTLYLQMNSLRAEDTAVYYCARWTNLYAMDYWGQGTTVTVSS VL: DIVLTQSPDSLAVSLGERATINCRASKSVSTQGYSYMHWYQQKPGQPPKFLIYLASNLESGVPDRFSGSGSGTDFTLTISSLQAEDVAVYYCQHSREVPYTFGGGTKVEIKR", "kon, M⁻¹ s⁻¹": 38600}
{"binder": "H2_T63Y_L1 (antibody, V domains shown, Fc null human IgG1 / human kappa) VH: QVQLVESGGGVVQPGRSLRLSCAASGFTFSDYGMHWVRQAPGKGLEWVAYISSGGTTIYYADYVKGRFTISRDNSKNTLYLQMNSLRAEDTAVYYCARWTNLYAMDYWGQGTTVTVSS VL: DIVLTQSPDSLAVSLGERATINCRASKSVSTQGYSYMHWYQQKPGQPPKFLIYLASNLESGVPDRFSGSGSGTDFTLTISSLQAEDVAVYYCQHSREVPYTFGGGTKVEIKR", "kon, M⁻¹ s⁻¹": 29600}

// next entry
Requested field: kon. Item: H2_T57H_VL-par (antibody, V domains shown, Fc null human IgG1 / human kappa) VH: QVQLVESGGGVVQPGRSLRLSCAASGFTFSDYGMHWVRQAPGKGLEWVAYISSGGTHIYYADTVKGRFTISRDNSKNTLYLQMNSLRAEDTAVYYCARWTNLYAMDYWGQGTTVTVSS VL: DIVLTQSPDSLAVSLGERATINCRASKSVSTSGYSYMHWYQQKPGQPPKFLIYLASNLESGVPDRFSGSGSGTDFTLTISSLQAEDVAVYYCQHSREVPYTFGGGTKVEIKR
43900
